FYI, the data here is from patent US20100048677A1.

For each of the substances below, state its #Peptides.
Molecular target: αIIb (INTEGRIN, ALPHA 2B; PLATELET GLYCOPROTEIN IIB OF IIB/IIIA COMPLEX, ANTIGEN CD41) (human) (UniProt P08514)
Assay: αIIb complexes captured, mass spectrometry; No. Expts 1
The reply should contain only the number, in peptides.

Kindly note the recorded #Peptides for PDZ AND LIM DOMAIN 7 (ENIGMA) (from UniProt Q9NR12 1-457) , which is 2

Kindly note the recorded #Peptides for GLUTAMATE RECEPTOR, IONOTROPIC, N-METHYL D-… 2D (from UniProt O15399 28-1336) , which is 2

Kindly note the recorded #Peptides for LUC7L2 (CGI-59 PROTEIN) (from UniProt Q9Y383 1-392) , which is 3

Kindly note the recorded #Peptides for UBR4 (ZINC FINGER, UBR1 TYPE 1) (from UniProt Q5T4S7 1-5183) , which is 8

Kindly note the recorded #Peptides for U2(RNU2) SMALL NUCLEAR RNA AUXILIARY FACTOR 1 (from UniProt Q01081 2-240) , which is 1
